Biological target: c-Src SH2
Test: SH2 binding enrichment of the phosphorylated peptide, bacterial display (enrichment ratio); higher = better substrate or ligand; peptides without Tyr show the background

residues: PNEAVYTKMMT [G6PD_Y401]
experimental system: c-Src SH2
SH2 binding enrichment: 2
--
residues: EPDSLYGCGGG [ATM_Y2019]
experimental system: c-Src SH2
SH2 binding enrichment: 0.619
--
residues: ETAENYLGFTA [HSPA9_Y181_H184Y_YF]
experimental system: c-Src SH2
SH2 binding enrichment: 0.45
--
residues: MTFVFYRENLR [NLRP14_Y443_YF]
experimental system: c-Src SH2
SH2 binding enrichment: 0.716
--
residues: GYKVRYATWSI [FGFR1_Y210]
experimental system: c-Src SH2
SH2 binding enrichment: 1.28
--
residues: IDDNEYAFLKA [HNF4A_Y286_YF]
experimental system: c-Src SH2
SH2 binding enrichment: 0.469
--
residues: LRFDVYGGENE [STOX1_Y610_E608D_YF]
experimental system: c-Src SH2
SH2 binding enrichment: 0.523
--
residues: LAARYYNWVSF [FLT4_Y1231]
experimental system: c-Src SH2
SH2 binding enrichment: 2.3

---

Biological target: EPHB1 (UniProt P54762)
Sequence (P54762 whole entry, looked up): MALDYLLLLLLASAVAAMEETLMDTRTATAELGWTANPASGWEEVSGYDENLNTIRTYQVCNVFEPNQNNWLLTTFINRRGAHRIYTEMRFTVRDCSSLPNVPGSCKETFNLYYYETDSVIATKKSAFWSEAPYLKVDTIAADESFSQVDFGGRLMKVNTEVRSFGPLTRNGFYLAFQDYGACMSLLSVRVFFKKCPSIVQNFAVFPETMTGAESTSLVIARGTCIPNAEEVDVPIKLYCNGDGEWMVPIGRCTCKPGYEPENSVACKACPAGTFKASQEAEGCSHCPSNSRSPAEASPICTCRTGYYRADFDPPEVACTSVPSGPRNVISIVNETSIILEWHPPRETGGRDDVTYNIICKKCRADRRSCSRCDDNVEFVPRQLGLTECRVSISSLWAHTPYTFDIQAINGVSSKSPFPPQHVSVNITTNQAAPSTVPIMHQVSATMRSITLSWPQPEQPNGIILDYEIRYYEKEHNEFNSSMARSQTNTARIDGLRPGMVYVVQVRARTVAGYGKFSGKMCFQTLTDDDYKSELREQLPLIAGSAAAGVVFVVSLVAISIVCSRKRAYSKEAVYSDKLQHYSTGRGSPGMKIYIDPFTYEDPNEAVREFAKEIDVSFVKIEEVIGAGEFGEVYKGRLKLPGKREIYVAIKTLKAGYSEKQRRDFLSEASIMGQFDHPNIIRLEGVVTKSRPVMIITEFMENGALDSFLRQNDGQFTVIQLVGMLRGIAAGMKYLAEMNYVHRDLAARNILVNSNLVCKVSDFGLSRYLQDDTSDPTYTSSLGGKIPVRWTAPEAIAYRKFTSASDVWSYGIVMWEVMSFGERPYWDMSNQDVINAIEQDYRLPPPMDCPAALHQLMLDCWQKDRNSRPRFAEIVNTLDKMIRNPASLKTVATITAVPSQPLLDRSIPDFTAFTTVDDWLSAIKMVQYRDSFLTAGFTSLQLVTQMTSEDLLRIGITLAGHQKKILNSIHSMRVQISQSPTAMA
Test: phosphorylation enrichment, bacterial display (enrichment ratio); higher = better substrate or ligand; peptides without Tyr show the background
property measured: phosphorylation enrichment

residues: PLFRVYGLESL [INSR_Y94_L89P]
property measured: phosphorylation enrichment
result: 0.803

residues: QLCVSYPGGFT [PROS1_Y259_N258S_YF]
property measured: phosphorylation enrichment
result: 0.481

residues: LEYNEYFRDLN [HPRT1_Y198_D194E]
property measured: phosphorylation enrichment
result: 1.18

residues: EPFEVYRIVPE [IRF8_Y110_K108E_YF]
property measured: phosphorylation enrichment
result: 0.662

residues: ALAAPYVLYPG [CEFIP_Y1332]
property measured: phosphorylation enrichment
result: 0.565

---

As shown below, each of these sequences has a reported SH2 binding enrichment value.
Molecular target: c-Src SH2;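 note: peptide library displayed on the E. coli surface as eCPX fusions, selected cells deep-sequenced, score is each peptide's frequency after selection divided by its frequency in the input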
Assay: SH2 binding enrichment of the phosphorylated peptide, bacterial display (enrichment ratio); higher = better substrate or ligand; peptides without Tyr show the background

residues: IKIMGSSIRTI [IDS_Y490_Y490S]
SH2 binding enrichment: 0.533
--
residues: CERFSYFGMKA [SLC15A2_Y60_YF]
SH2 binding enrichment: 0.704
--
residues: RFLRGYRQFAF [HLA-A_Y137_D140Y_YF]
SH2 binding enrichment: 0.412
--
residues: AIIGIYILRDD [CDH23_Y2949]
SH2 binding enrichment: 1.04
--
residues: NKFTTYLPRLP [C9orf24_Y126_YF]
SH2 binding enrichment: 0.824
--
residues: ANLAKYGNPNE [BCHE_Y505_F502L]
SH2 binding enrichment: 0.425
--
residues: VRQQVYKKVEE [HADHA_Y283]
SH2 binding enrichment: 0.427
--
residues: MHRRQYELLGG [GNAS_Y391_L388R]
SH2 binding enrichment: 2.1

---

Test system: c-Abl (mouse)
Assay: phosphorylation enrichment, bacterial display (enrichment ratio); higher = better substrate or ligand; peptides without Tyr show the background
So basically: phosphorylation enrichment at 0.8 or higher? That is True. Lower than 0.8? That is False.

residues: ATARPYSPFII [LRP5_Y1528_R1529S_YF]
class label: False

residues: VEGISYDFIPT [CBS_Y308_G307S]
class label: False

residues: MTFVFYRENLR [NLRP14_Y443_YF]
class label: False

residues: LRFKQYLRNPP [SHC1_Y315]
class label: True

residues: GYKVRYATWSI [FGFR1_Y210]
class label: True

residues: WFKKFYDANFD [MAPRE2_Y158_YF]
class label: False

---

Biological target: Fes (UniProt P07332)
Sequence (P07332 whole entry, looked up): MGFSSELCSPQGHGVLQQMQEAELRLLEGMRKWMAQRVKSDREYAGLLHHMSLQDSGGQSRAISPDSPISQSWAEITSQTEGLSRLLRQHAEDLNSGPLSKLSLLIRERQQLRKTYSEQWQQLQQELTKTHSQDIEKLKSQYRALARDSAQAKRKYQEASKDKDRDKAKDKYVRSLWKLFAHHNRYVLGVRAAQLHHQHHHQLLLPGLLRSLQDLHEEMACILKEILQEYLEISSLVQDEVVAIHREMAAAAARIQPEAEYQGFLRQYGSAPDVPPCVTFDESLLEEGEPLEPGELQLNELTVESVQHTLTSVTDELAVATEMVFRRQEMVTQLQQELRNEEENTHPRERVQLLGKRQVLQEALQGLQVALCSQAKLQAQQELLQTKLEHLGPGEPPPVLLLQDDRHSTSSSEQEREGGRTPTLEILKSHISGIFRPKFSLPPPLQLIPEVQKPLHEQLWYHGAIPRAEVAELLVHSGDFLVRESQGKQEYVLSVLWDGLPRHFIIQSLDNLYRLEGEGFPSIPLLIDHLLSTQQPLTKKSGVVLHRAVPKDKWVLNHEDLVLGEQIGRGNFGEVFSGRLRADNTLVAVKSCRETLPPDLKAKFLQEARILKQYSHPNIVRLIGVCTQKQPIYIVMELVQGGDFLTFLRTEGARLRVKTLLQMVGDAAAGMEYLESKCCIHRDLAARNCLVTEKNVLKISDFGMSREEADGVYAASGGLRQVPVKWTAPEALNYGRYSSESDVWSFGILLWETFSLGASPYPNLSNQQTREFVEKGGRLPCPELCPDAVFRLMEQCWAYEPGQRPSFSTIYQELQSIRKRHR
Assay: phosphorylation enrichment, bacterial display (enrichment ratio); higher = better substrate or ligand; peptides without Tyr show the background
This listing pairs sequences with measured phosphorylation enrichment.

residues: SIKDKYVTALF [KCNH2_Y611_YF]
phosphorylation enrichment: 0.846
--
residues: RRAVKYLQMVG [AVPR2_Y117_C112R]
phosphorylation enrichment: 0.978
--
residues: GIATGYLVLKE [DNMT3B_Y588]
phosphorylation enrichment: 0.77
--
residues: QTLEAYIRWNK [SPAST_Y604]
phosphorylation enrichment: 1.44
--
residues: IKKFKYRIEEH [GJA1_Y137_G138R]
phosphorylation enrichment: 0.83
--
residues: ATARPYSPFII [LRP5_Y1528_R1529S_YF]
phosphorylation enrichment: 0.735
--
residues: RSFLSYFTSHV [NEFL_Y442_P440L_YF]
phosphorylation enrichment: 1.8
--
residues: RLPSGYGLAFR [DLK1_Y262_YF]
phosphorylation enrichment: 0.885
--
residues: NRLTDYFELLL [BBS10_Y536_P539L_YF]
phosphorylation enrichment: 1.31
--
residues: MSLRSYGSREG [APC_Y96]
phosphorylation enrichment: 0.586

---

Target: FGFR1 (UniProt P11362)
Sequence (P11362 whole entry, looked up): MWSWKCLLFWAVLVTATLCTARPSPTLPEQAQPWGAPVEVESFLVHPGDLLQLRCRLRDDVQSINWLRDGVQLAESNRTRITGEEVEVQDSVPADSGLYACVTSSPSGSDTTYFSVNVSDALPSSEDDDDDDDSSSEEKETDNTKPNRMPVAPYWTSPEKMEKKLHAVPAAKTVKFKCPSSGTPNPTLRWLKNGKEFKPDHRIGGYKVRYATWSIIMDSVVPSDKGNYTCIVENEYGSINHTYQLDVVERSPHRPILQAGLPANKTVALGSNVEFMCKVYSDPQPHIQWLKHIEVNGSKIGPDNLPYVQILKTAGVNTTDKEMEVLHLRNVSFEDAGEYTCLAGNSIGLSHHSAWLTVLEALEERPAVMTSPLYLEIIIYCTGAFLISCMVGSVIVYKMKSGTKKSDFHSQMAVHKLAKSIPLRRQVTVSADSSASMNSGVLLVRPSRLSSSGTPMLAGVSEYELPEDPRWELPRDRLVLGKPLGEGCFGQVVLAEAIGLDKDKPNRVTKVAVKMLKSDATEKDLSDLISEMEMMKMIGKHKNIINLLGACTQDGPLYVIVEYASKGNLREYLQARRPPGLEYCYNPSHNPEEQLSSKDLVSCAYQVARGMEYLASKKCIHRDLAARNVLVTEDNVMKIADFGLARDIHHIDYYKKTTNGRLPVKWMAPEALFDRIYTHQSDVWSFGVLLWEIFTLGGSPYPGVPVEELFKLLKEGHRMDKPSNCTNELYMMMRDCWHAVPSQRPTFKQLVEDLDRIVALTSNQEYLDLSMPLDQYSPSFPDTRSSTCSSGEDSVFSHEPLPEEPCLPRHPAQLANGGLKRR
Experiment: phosphorylation enrichment, bacterial display (enrichment ratio); higher = better substrate or ligand; peptides without Tyr show the background
Kindly note that classification relies on phosphorylation enrichment with these boundaries: class A (below 0.5), class B (0.5 to below 0.6), class C (0.6 or more)

residues: DYGSGYPNDPK [RNASEH2A_Y210]
class label: class B
--
residues: DKVFTYIFIME [SCN4A_Y1074]
class label: class B
--
residues: PADQAYSWFQH [NDST1_Y711_R709Q_YF]
class label: class C
--
residues: YSSLGYPPPEG [ZSWIM4_Y87]
class label: class C
--
residues: YENGEYIIRQG [PRKG1_Y247]
class label: class A
--
residues: FIGCIYLFLTK [GARS1_Y414_R412C_YF]
class label: class A
--
residues: RSRSSYTHSLN [MYCT1_Y116_G119S]
class label: class B
--
residues: KNGSNYVVKGN [KIT_Y823_D820G]
class label: class A
--
residues: FTRNFYVRAVL [CYBA_Y88_YF]
class label: class C

---

Listed here are sequences together with their documented phosphorylation enrichment.
System: c-Src
Test: phosphorylation enrichment, bacterial display (enrichment ratio); higher = better substrate or ligand; peptides without Tyr show the background

residues: IKKFKYRIEEH [GJA1_Y137_G138R]
experimental system: c-Src
phosphorylation enrichment: 0.363
//
residues: PVDTYYDSTRG [DYNC2H1_Y2231_M2227V]
experimental system: c-Src
phosphorylation enrichment: 0.955
//
residues: NVADHYRVFKP [ATP6V0D2_Y271_G272R_YF]
experimental system: c-Src
phosphorylation enrichment: 0.471
//
residues: SEEVNYATLTF [CLEC12B_Y7_T6N]
experimental system: c-Src
phosphorylation enrichment: 1.41
//
residues: EEKKKYYDTKI [CASP5_Y103]
experimental system: c-Src
phosphorylation enrichment: 0.34
//
residues: LTQRTYMSENA [GPAA1_Y49]
experimental system: c-Src
phosphorylation enrichment: 0.429
//
residues: CTTIHYIYMCN [TP53_Y234_N235I]
experimental system: c-Src
phosphorylation enrichment: 0.263
//
residues: RNGNRYFKGIV [DCX_Y64_D62N]
experimental system: c-Src
phosphorylation enrichment: 0.846
//
residues: EIRTQYEVMAS [GFAP_Y242_A244V]
experimental system: c-Src
phosphorylation enrichment: 0.437
//
residues: GPSTPYTKSKC [SMARCC2_Y324_R329C]
experimental system: c-Src
phosphorylation enrichment: 0.36
//
residues: IITVHYVLEES [RYR2_Y4559_A4556T]
experimental system: c-Src
phosphorylation enrichment: 0.523
//
residues: PATYTYDEYKK [COL8A2_Y648]
experimental system: c-Src
phosphorylation enrichment: 3.07
//
residues: FALAEYTEVKT [ALDH1A3_Y497_YF]
experimental system: c-Src
phosphorylation enrichment: 0.621
//
residues: RPSRWYQFPVA [ANOS1_Y259_R262P]
experimental system: c-Src
phosphorylation enrichment: 0.648
//
residues: LTDRGYSFVTT [ACTA1_Y200_E197D]
experimental system: c-Src
phosphorylation enrichment: 0.6
//
residues: LISVSYDDWDY [GRIN2A_Y281]
experimental system: c-Src
phosphorylation enrichment: 0.652
//
residues: DGTGHYLGNAC [GATA5_Y208_C210G]
experimental system: c-Src
phosphorylation enrichment: 0.311
//
residues: MEYLPYGSLRD [JAK2_Y934]
experimental system: c-Src
phosphorylation enrichment: 4.9
//
residues: CERFSYFGMKA [SLC15A2_Y60_YF]
experimental system: c-Src
phosphorylation enrichment: 0.575
//
residues: EPSVPYRGMVF [GLI3_Y104_T107M]
experimental system: c-Src
phosphorylation enrichment: 0.462
//
residues: RKVLVYDKLNV [ROR2_Y624_N620K]
experimental system: c-Src
phosphorylation enrichment: 1.82
//
residues: HEHKGYNANFC [TGFB2_Y341_P338H]
experimental system: c-Src
phosphorylation enrichment: 0.542
//
residues: KVITDYYVDMK [MPP4_Y566]
experimental system: c-Src
phosphorylation enrichment: 0.597
//
residues: EADRKYEEVAC [TPM3_Y163_R168C]
experimental system: c-Src
phosphorylation enrichment: 0.53
//
residues: PLQSEYSSIST [ITGB4_Y1760_T1764S]
experimental system: c-Src
phosphorylation enrichment: 1.3
//
residues: PLQKIYNFNVL [SLC4A1_Y553_T552I_YF]
experimental system: c-Src
phosphorylation enrichment: 2.63
//
residues: RVSSVYTRSTG [CCR5_Y339_A335V]
experimental system: c-Src
phosphorylation enrichment: 0.853
//
residues: RGESFYQDTMN [RARS_Y338_R341T]
experimental system: c-Src
phosphorylation enrichment: 0.602
//
residues: KLFFHYDPKLC [INSR_Y457_N458D]
experimental system: c-Src
phosphorylation enrichment: 0.361
//
residues: SVTCTYSPALF [TP53_Y126_N131Y_YF]
experimental system: c-Src
phosphorylation enrichment: 1
//
residues: CTTIHKNFMCN [TP53_Y234_Y234K_YF]
experimental system: c-Src
phosphorylation enrichment: 0.448
//
residues: PANMVYSTVEI [SLAMF7_Y304_T302M]
experimental system: c-Src
phosphorylation enrichment: 8.24
//
residues: SIKDKYVTALF [KCNH2_Y611_YF]
experimental system: c-Src
phosphorylation enrichment: 0.502
//
residues: DESEDYRDTVV [CNNM3_Y456]
experimental system: c-Src
phosphorylation enrichment: 0.662
//
residues: ALAAPYVLFPS [CEFIP_Y1332_G1337S_YF]
experimental system: c-Src
phosphorylation enrichment: 5
//
residues: RFVTRYIFNRE [HLA-DQB1_Y62_YF]
experimental system: c-Src
phosphorylation enrichment: 0.593
//
residues: SPPPAFTPMSG [ERBB4_Y1056_Y1056F]
experimental system: c-Src
phosphorylation enrichment: 0.442
//
residues: RLGNQYVNVMN [SLC3A1_Y461]
experimental system: c-Src
phosphorylation enrichment: 0.508
//
residues: NSIGNYYKPWF [DHCR24_Y299]
experimental system: c-Src
phosphorylation enrichment: 0.69
//
residues: PVDVAYRHGYF [PLEC_Y2967_R2969H]
experimental system: c-Src
phosphorylation enrichment: 0.905
//
residues: HTVVSYAKVRA [CLOCK_Y378_E380K]
experimental system: c-Src
phosphorylation enrichment: 0.489
//
residues: ARGMEYLAEQK [MST1R_Y1198_G1195S]
experimental system: c-Src
phosphorylation enrichment: 0.381
//
residues: DTNIAYCLHPR [POMT1_Y581_W582C]
experimental system: c-Src
phosphorylation enrichment: 0.568
//
residues: AGKEEYSAMRD [HRAS_Y64_Q61K]
experimental system: c-Src
phosphorylation enrichment: 0.436
//
residues: HGEAYYSEVKA [PAK5_Y182_P187A]
experimental system: c-Src
phosphorylation enrichment: 2.22
//
residues: ATDLAYYLVRK [ASL_Y375]
experimental system: c-Src
phosphorylation enrichment: 1.27
//
residues: TFTVSYLPDMS [FLNC_Y1602_YF]
experimental system: c-Src
phosphorylation enrichment: 0.478
//
residues: FGTAQYCCRMG [LRRK2_Y2023_I2020T_YF]
experimental system: c-Src
phosphorylation enrichment: 0.403
//
residues: EAEPYYRSLRD [NPHS1_Y1139]
experimental system: c-Src
phosphorylation enrichment: 0.601
